- System: cholesterol and triglycerides
- PROCEDURE TEXT: Hypocholesterolemiating and hypolipemiating activity in normolipemiating rats (Table III)
- Format: in vivo
- CONDITION CONTEXT: rat, gastric probe, equivalent of 75 mg/kg clofibrate every 12 hours, 10 days; versus untreated
So basically: is Cholesterol, decrease under 20%? Then Met. Not under? Then Not met.

1) CC(=O)Oc1ccccc1C(=O)OCC(COC(=O)C(C)(C)Oc1ccc(Cl)cc1)OS(=O)(=O)O (stereo not shown) [Compound V] | Not met
2) CC(=O)Oc1ccccc1C(=O)OC1C(OC(=O)c2ccccc2OC(C)=O)C(OC(=O)C(C)(C)Oc2ccc(Cl)cc2)C(OC(=O)C(C)(C)Oc2ccc(Cl)cc2)C(OC(=O)C(C)(C)Oc2ccc(Cl)cc2)C1OC(=O)C(C)(C)Oc1ccc(Cl)cc1 (stereo not shown) [Compound I] | Met
3) CCOC(=O)C(C)(C)Oc1ccc(Cl)cc1 [clofibrate, reference compound] | Not met
4) CC(=O)Oc1ccccc1C(=O)OCC(COC(=O)C(C)(C)Oc1ccc(Cl)cc1)OC(=O)C(C)(C)Oc1ccc(Cl)cc1 (stereo not shown) [Compound III] | Met
5) CC(=O)Oc1ccccc1C(=O)OCC(COC(=O)C(C)(C)Oc1ccc(Cl)cc1)OC(C)=O (stereo not shown) [Compound IV] | Not met
6) CC(=O)Oc1ccccc1C(=O)OCCOC(=O)C(C)(C)Oc1ccc(Cl)cc1 [Compound VI] | Not met
7) CC(=O)Oc1ccccc1C(=O)OC(COC(=O)C(C)(C)Oc1ccc(Cl)cc1)COC(=O)C(C)(C)Oc1ccc(Cl)cc1 [Compound II] | Met

====

Catalogue of Cholesterol values
- Tested on: cholesterol and triglycerides
- PROCEDURE TEXT: Hypocholesterolemiating and hypolipemiating activity in normolipemiating rats (Table III)
- Format: in vivo
- CONDITION CONTEXT: rat, gastric probe, equivalent of 75 mg/kg clofibrate every 12 hours, 10 days; untreated 90.79
QUANTITY KIND: Cholesterol (mg/100 ml)

1. CC(=O)Oc1ccccc1C(=O)OCCOC(=O)C(C)(C)Oc1ccc(Cl)cc1 [Compound VI] | 67.34
2. CC(=O)Oc1ccccc1C(=O)OCC(COC(=O)C(C)(C)Oc1ccc(Cl)cc1)OC(C)=O (stereo not shown) [Compound IV] | 72.12
3. CC(=O)Oc1ccccc1C(=O)OCC(COC(=O)C(C)(C)Oc1ccc(Cl)cc1)OC(=O)C(C)(C)Oc1ccc(Cl)cc1 (stereo not shown) [Compound III] | 75.63
4. CC(=O)Oc1ccccc1C(=O)OC1C(OC(=O)c2ccccc2OC(C)=O)C(OC(=O)C(C)(C)Oc2ccc(Cl)cc2)C(OC(=O)C(C)(C)Oc2ccc(Cl)cc2)C(OC(=O)C(C)(C)Oc2ccc(Cl)cc2)C1OC(=O)C(C)(C)Oc1ccc(Cl)cc1 (stereo not shown) [Compound I] | 78.25
5. CC(=O)Oc1ccccc1C(=O)OC(COC(=O)C(C)(C)Oc1ccc(Cl)cc1)COC(=O)C(C)(C)Oc1ccc(Cl)cc1 [Compound II] | 73.90
6. CC(=O)Oc1ccccc1C(=O)OCC(COC(=O)C(C)(C)Oc1ccc(Cl)cc1)OS(=O)(=O)O (stereo not shown) [Compound V] | 68.38
7. CCOC(=O)C(C)(C)Oc1ccc(Cl)cc1 [clofibrate, reference compound] | 65.24

====

- PROCEDURE TEXT: Acute toxicity on the male rat, p.o. (Table I)
- CONDITION CONTEXT: in vivo, po
QUANTITY KIND: LD50

1. CC(=O)Oc1ccccc1C(=O)OCC(COC(=O)C(C)(C)Oc1ccc(Cl)cc1)OC(C)=O (stereo not drawn) [Compound IV] | > 5000 mg/kg
2. CC(=O)Oc1ccccc1C(=O)OCC(COC(=O)C(C)(C)Oc1ccc(Cl)cc1)OC(=O)C(C)(C)Oc1ccc(Cl)cc1 (stereo not drawn) [Compound III] | > 6200 mg/kg
3. CC(=O)Oc1ccccc1C(=O)OC(COC(=O)C(C)(C)Oc1ccc(Cl)cc1)COC(=O)C(C)(C)Oc1ccc(Cl)cc1 [Compound II] | > 7500 mg/kg
4. CC(=O)Oc1ccccc1C(=O)OCC(COC(=O)C(C)(C)Oc1ccc(Cl)cc1)OS(=O)(=O)O (stereo not drawn) [Compound V] | > 5000 mg/kg
5. CC(=O)Oc1ccccc1C(=O)OCCOC(=O)C(C)(C)Oc1ccc(Cl)cc1 [Compound VI] | > 6000 mg/kg
6. CC(=O)Oc1ccccc1C(=O)OC1C(OC(=O)c2ccccc2OC(C)=O)C(OC(=O)C(C)(C)Oc2ccc(Cl)cc2)C(OC(=O)C(C)(C)Oc2ccc(Cl)cc2)C(OC(=O)C(C)(C)Oc2ccc(Cl)cc2)C1OC(=O)C(C)(C)Oc1ccc(Cl)cc1 (stereo not drawn) [Compound I] | > 5000 mg/kg
